target: PARP (Mus musculus, UniProt P11103); construct: PARP Activity in Cultured Macrophages, Using a Whole-Cell Based Assay; endogenous in cells; assay: PARP activity in cultured macrophages, whole-cell based assay (3H-NAD+ incorporation after hydrogen peroxide); conditions: murine RAW macrophages, 1 hour pretreatment, hydrogen peroxide 0.5 mM
Sequence (P11103 whole entry): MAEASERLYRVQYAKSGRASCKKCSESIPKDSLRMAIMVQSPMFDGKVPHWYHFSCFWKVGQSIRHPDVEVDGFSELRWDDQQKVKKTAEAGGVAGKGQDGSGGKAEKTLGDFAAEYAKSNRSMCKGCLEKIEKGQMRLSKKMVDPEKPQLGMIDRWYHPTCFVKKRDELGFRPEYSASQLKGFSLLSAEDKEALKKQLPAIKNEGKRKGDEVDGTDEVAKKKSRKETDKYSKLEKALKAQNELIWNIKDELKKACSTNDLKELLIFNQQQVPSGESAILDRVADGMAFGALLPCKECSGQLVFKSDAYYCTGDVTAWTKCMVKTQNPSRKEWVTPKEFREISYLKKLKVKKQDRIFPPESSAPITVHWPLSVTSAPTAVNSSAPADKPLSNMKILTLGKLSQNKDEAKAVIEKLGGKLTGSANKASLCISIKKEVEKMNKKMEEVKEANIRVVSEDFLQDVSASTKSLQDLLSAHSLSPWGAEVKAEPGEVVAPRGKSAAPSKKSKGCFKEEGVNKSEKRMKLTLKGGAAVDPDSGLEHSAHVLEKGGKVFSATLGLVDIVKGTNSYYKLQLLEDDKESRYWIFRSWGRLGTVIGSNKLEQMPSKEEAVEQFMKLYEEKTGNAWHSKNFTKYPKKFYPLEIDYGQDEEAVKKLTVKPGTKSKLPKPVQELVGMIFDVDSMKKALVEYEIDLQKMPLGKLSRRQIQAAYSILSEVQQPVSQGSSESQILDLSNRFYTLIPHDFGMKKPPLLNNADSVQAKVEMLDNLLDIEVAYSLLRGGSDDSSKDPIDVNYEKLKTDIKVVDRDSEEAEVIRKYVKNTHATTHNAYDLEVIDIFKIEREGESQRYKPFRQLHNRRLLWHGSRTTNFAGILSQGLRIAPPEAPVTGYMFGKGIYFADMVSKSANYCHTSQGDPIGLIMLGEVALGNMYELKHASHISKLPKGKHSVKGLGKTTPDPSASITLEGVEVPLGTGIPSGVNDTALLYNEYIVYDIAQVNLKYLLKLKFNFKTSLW
Structures can show the parent of a compound that is named as a salt.
Threshold check on EC50: strictly below 200 nM is true (1); on or above 200 nM is false (0).

Solved entries:
| Molecule | Class |
| --- | --- |
| O=c1[nH]c2c(c3c1CCCC3)Cc1cc(CN3CCC(O)CC3)ccc1-2 | false (0) |
| O=c1[nH]c2c(c3c1CCCC3)Cc1c(CN3CCC(F)(F)CC3)cccc1-2 | false (0) |
| CCOC1CCN(Cc2cccc3c2Cc2c-3[nH]c(=O)c3c2CCCC3)CC1 [Example 14, mesylate] | true (1) |
| O=c1[nH]c2c(c3c1CCCC3)Cc1c(CN3CCCCC3)cccc1-2 [Example 4, hydrochloride] | true (1) |
| CC(C)(N)c1cccc2c1Cc1c-2[nH]c(=O)c2c1CCCC2 | true (1) |

Kindly consider the entry below.
Say whether its EC50 is strictly beneath 200 nM. Entry: O=c1[nH]c2c(c3sccc13)Cc1c(CN3CCC(C(F)(F)F)CC3)cccc1-2
false (0)

meta.source: patent US20100261706A1
